The reported measurements were obtained from PubChem BioAssay (NCI).

system: SNB-75 CNS; experiment: NCI-60 one-dose screen, 48 h (100 = growth as untreated, 0 = no growth, -100 = all killed); details: 10 µM unless noted
This is part of a sample that, as a whole, favours compounds with a hit. Of some 83,000 tested, about 20% had one in any assay.
The molecules listed here are annotated with their growth.
Respond numerically; units are % and should not be typed.

CCc1ccc(Cc2cnc(NC(=O)c3cc(C)oc3C)s2)cc1 ... -4.36
[2H]C([2H])([2H])Oc1ccc(/C=C/C(=O)/C=C(O)/C=C/c2ccc(OC([2H])([2H])[2H])c(OC([2H])([2H])[2H])c2)cc1OC([2H])([2H])[2H] ... 45.7
O=C(CSc1nc(-c2ccccc2)cn1-c1ccc(Cl)cc1)c1ccc([N+](=O)[O-])cc1 ... 93.8
CCCn1cnc2c(c1=N)C(c1ccc(Cl)cc1)c1sc3c(F)cccc3c1O2 (centres undefined) ... 90.2

// sample CCN(CC)CCCNC(=O)c1c2c(n3ccccc13)C(=O)c1ncccc1C2=O , its growth was -87.2

// sample Cc1ccc(C(=O)Nc2ccc(CN3CCN(C)CC3)c(C(F)(F)F)c2)cc1C#Cc1cnc(N)c2ccccc12 , its growth was -70.4

// sample O=C1c2c(c3c4cc(F)ccc4oc3c3[nH]c4ccccc4c23)C(=O)N1O , its growth was 10.3

// sample O=C1NCCS(=O)(=O)/C1=C\C=C\c1cccc(C(F)(F)F)c1 , its growth was 71.2

// sample COc1cc(OCc2cccc(-c3ccccc3)c2C)cc(OC)c1CN1CCCCC1C(=O)NCCOCCOCCN (centres undefined) , its growth was 73.8

---

system: TK-10 renal; assay: NCI-60 one-dose screen, 48 h; conditions: 10 µM unless noted
Compounds without any hit were thinned out: in the full panel of roughly 83,000, 20% have a hit. Activity calls are given as the source filed them. How the source made its calls: active means growth percent below 10; inactive means the rest.
Write down one outcome, taken from yes (1) = active, no (0) = inactive

Consider the worked cases shown below.
O=c1c2cccc3c(N4CCOCC4)ccc(c32)c2nc3ccccc3n12 ... no (0)
O=C1/C(=C/c2cccc([N+](=O)[O-])c2)COc2ccc(O)c(O)c21 ... yes (1)
CCOC(=O)c1ccc2c(c1)c1c(C)c3cnccc3c(C)c1n2C ... yes (1)
O=C1NC(=O)C(=Cc2cc(-c3ccc(Cl)cc3)n(-c3ccccc3)n2)C(=O)N1 ... no (0)
CC(C)(C)[C@H](OCc1cn([C@H]2C[C@@H](O)[C@@H](CO)O2)c(=O)[nH]c1=O)c1ccc(C#Cc2ccccc2)cc1[N+](=O)[O-] ... no (0)
O=C(NC1CCCCCC1)c1ccc2c(=O)n3c(nc2c1)CCCCC3 ... no (0)
CCN(CC)CCCNC(=O)c1c2c(n3ccccc13)C(=O)c1ncccc1C2=O ... yes (1)
O=C(Nc1ccc2c(c1)-c1ccccc1C2)C1CC(=O)N(c2ccc3c(c2)OCO3)C1 (stereo not given) ... no (0)
CCN=c1sc2c(n1NC(=O)c1cc3ccc1CCc1ccc(cc1)CC3)C(=O)c1ccccc1C2=O ... no (0)
COC1=C(OC)C(=O)C(CCCCCCCCCCO)=C(C)C1=O ... no (0)

Hi, sorry to bother you, what did the test record for CC1(C)C2=C(C(=O)N1Cc1ccccc1)C(c1ccco1)N(C(=O)C1CCC1)CCN2 (stereo not given) ?
no (0)

Hi, sorry to bother you, what did the test record for CNC1=C([N+](=O)[O-])C(c2ccc(OC)cc2)C(C#N)=C(c2ccc[nH]2)O1 (stereo not given) ?
no (0)

Hi, sorry to bother you, what did the test record for C=C(c1ccc(C(=O)O)c(F)c1)c1cc2c(cc1C)C(C)(C)C=CC2(C)C ?
no (0)

Hi, sorry to bother you, what did the test record for CSc1nc(N)c2c(n1)NC(c1ccccc1)C1CCc3ccccc3C1=N2 (stereo not given) ?
no (0)

Hi, sorry to bother you, what did the test record for CC(C)(C)c1ccc(C(=O)Nc2sc3c(c2C#N)CCC(=O)C3)cc1 ?
no (0)

Hi, sorry to bother you, what did the test record for O=C(CSc1nnc(-c2cc(-c3ccc(Cl)cc3)nc3ccccc23)n1-c1ccccc1)Nc1ccc(Cl)cc1 ?
no (0)

Hi, sorry to bother you, what did the test record for Cc1c(N2CCCCC2)[nH]c2ccccc12 ?
no (0)

---

tested on: SNB-19 CNS; experiment: NCI-60 one-dose screen, 48 h (100 = growth as untreated, 0 = no growth, -100 = all killed); conditions: 10 µM unless noted
About 83,000 compounds went through this panel and 20% of them were active in at least one assay; those are over-represented in the sample as a whole.
Decision: growth >= 80% yields 1 (yes), all other cases yield 0 (no).

Cc1[nH]c(C(=O)Nc2ccccc2OC2CCNC2)c(Cl)c1Cl (stereo not given) ... 1 (yes)
Nc1nc(N)c2c(n1)NC(c1cccc(Nc3ccnc4cc(C(F)(F)F)ccc34)c1)CC(c1ccc(Cl)cc1)=N2 (stereo not given) ... 0 (no)
COc1cccc(CNc2nnc(C)c(C)n2)c1O ... 1 (yes)
COc1ccc(S(=O)(=O)NC2c3ccccc3CC2O)cc1OC (stereo not given) ... 1 (yes)

Hi team, for CN1CCN(CC(=O)N(C)c2ccc(N=C(c3ccccc3)c3c(O)[nH]c4ccc([N+](=O)[O-])cc34)cc2)CC1 , is the recorded growth at or above 80%?
1 (yes)

Hi team, for COc1ccc(C(c2cc(OC)c(OC)c(OC)c2)n2cncn2)cc1O (stereo not given) , is the recorded growth at or above 80%?
0 (no)

Hi team, for C#Cc1cccc(Nc2nc(Cl)nc3cc(NC(=O)CCl)ccc23)c1 , is the recorded growth at or above 80%?
0 (no)

Hi team, for Cc1nn(C)c2ncnc(Nc3ccccc3Br)c12 , is the recorded growth at or above 80%?
1 (yes)

---

The molecules listed here are annotated with their growth.
tested on: DU-145 prostate; experiment: NCI-60 one-dose screen, 48 h (100 = growth as untreated, 0 = no growth, -100 = all killed); settings: 10 µM unless noted
About 83,000 compounds went through this panel and 20% of them were active in at least one assay; those are over-represented in the sample as a whole.
Respond numerically; units are % and should not be typed.

COc1ccc(C2=NN(C=O)C(c3ccc(Oc4nc5c(c(=O)n(C)c(=O)n5C)n4C)c(OC)c3)C2)cc1 (stereo not given) ... 60.9
Cc1cc(C)n(C(=O)CSc2nc3sc4c(c3c(=O)n2-c2ccccc2)CCCCC4)n1 ... 106
Cc1ccc2c(n1)C[C@H](C(C)(C)O)CC[C@H]2C ... 107
Oc1ccc(Cc2ccc(O)c3ncccc23)c2cccnc12 ... 23.5

Next molecule, please.
// sample Cc1cc(=O)oc2cc(Oc3nc(-c4ccccc4)cn4c(-c5ccccc5)cnc34)ccc12 , its growth was 68

---

The compounds listed here are annotated with their growth.
system: UACC-257 melanoma; assay: NCI-60 one-dose screen, 48 h (100 = growth as untreated, 0 = no growth, -100 = all killed); conditions: 10 µM unless noted
Compounds without any hit were thinned out: in the full panel of roughly 83,000, 20% have a hit. Activity calls are given as the source filed them. How the source made its calls: active means growth percent below 10; inactive means the rest.

Worked examples follow.
CCC(C)C(N)C(=O)NC(CC(C)C)C(=O)N1CCCC1C(=O)NC(Cc1c[nH]c2ccccc12)C(=O)NC(CCCCN)C(=O)NC(Cc1c[nH]c2ccccc12)C(=O)N1CCCC1C(=O)NC(Cc1c[nH]c2ccccc12)C(=O)NC(Cc1c[nH]c2ccccc12)C(=O)N1CCCC1C(=O)NC(Cc1c[nH]c2ccccc12)C(=O)NC(CCCNC(=N)N)C(=O)NC(CCCNC(=N)N)C(N)=O (centres undefined) ... 97.8% (inactive)
C#CCOc1cccc(-c2ncnc3cc(NC(=O)CCl)ccc23)c1 ... 42.8% (inactive)
CCOC(=O)/C(=C\c1ccccc1Cl)P(=O)(OCC)OCC ... 61.9% (inactive)

// sample COc1cc2nc3cc([N+](=O)[O-])ccc3c(NCCCNCCO)c2cc1OC , its growth was -53.4% (active)

---

test system: RXF 393 renal; assay: NCI-60 one-dose screen, 48 h (100 = growth as untreated, 0 = no growth, -100 = all killed); settings: 10 µM unless noted
This is part of a sample that, as a whole, favours compounds with a hit. Of some 83,000 tested, about 20% had one in any assay.
endpoint-name: growth (%)
Respond numerically; units are % and should not be typed.

O=C1/C(=C/c2cccc([N+](=O)[O-])c2)COc2ccc(O)c(O)c21 ... -81.3
Cn1cc(-c2csc(-c3cn(CCO)c4ccc(F)cc34)n2)c2cccnc21 ... 69.7
O=C(/C=C/c1ccco1)c1ccc(Nc2ccnc3cc(Cl)ccc23)cc1 ... -28.3
Cc1ccc(-c2nc(C#N)c(S(=O)(=O)n3nc(C)cc3N)o2)cc1 ... 76.8
CN(C)CC1C(=O)O[C@H]2[C@H]1CC/C(COC(=O)NCc1ccc(Cn3c(=O)sn(CCCI)c3=O)cc1)=C\CC[C@@]1(C)O[C@@H]21 (some centres undefined) ... -87
CCN1C(=O)N(CC)C2C1NN=c1s/c(=C\c3ccc(F)cc3)c(=O)n12 (centres undefined) ... 5.29

// sample Nc1cc(-c2ccc(Cl)cc2)nn1-c1nc(-c2ccc(Br)cc2)cs1 , its growth was 103

// sample CC(C)(C#N)c1cc(C(=O)Nc2cc(Nc3ncccc3-c3ncnc4nc[nH]c34)ccc2F)cc(C(F)(F)F)c1 , its growth was 91.7

// sample O=C(/C=C/C12c3ccccc3C(c3ccccc31)C1C(=O)NC(=O)C12)c1cccs1 (centres undefined) , its growth was 28.1
